- TARGET_OF_ASSAY: hNurr1_RXRγFL (NURR1/RXRγ heterodimer) (Homo sapiens, UniProt P43354+P48443)
- Sequence (P43354 328-598): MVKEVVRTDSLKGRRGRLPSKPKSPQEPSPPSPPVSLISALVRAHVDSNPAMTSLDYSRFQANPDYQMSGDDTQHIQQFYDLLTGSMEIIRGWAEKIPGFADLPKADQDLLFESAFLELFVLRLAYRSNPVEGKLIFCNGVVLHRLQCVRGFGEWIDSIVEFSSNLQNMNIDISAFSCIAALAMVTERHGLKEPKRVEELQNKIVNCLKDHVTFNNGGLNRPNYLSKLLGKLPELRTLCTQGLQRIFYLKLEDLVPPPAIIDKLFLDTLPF
- Sequence (P48443 whole entry, the tested form may be a part): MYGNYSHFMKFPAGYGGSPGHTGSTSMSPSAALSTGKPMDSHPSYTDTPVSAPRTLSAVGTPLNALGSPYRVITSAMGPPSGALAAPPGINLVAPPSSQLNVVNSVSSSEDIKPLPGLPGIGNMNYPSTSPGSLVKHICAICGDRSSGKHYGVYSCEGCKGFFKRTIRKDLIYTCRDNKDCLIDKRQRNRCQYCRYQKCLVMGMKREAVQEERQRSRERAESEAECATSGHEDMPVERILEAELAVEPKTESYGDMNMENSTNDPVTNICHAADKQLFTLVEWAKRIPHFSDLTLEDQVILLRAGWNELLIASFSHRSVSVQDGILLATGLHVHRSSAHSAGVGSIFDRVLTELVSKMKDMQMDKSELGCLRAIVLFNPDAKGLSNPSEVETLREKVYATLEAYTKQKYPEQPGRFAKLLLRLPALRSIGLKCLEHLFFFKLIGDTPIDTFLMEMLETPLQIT
- PROCEDURE_DETAILS: Transactivation assay in Cos-7 cells, NURR-1-Gal4 / RXRγ, luciferase reporter
- ASSAY_SETUP: Cos-7 cells, overnight incubation
QUANTITY: EC50 (nM)
Answer with a number only, understood to be in nM.

Example results:
State the recorded EC50 for this entry: O=C(O)c1ccc(Cc2cc3cc(Cl)ccc3n2S(=O)(=O)c2ccc(F)c(Cl)c2)cc1
501

State the recorded EC50 for this entry: CC(C)(C)c1cccc(S(=O)(=O)n2c(Cc3ccc(C(=O)O)o3)cc3cc(C(F)(F)F)ccc32)c1
15

State the recorded EC50 for this entry: CN1C(=O)COc2ccc(S(=O)(=O)n3c(Cc4ccc(C(=O)O)cc4)cc4cc(C(F)(F)F)ccc43)cc21
724

Further cases:
State the recorded EC50 for this entry: CCc1ccc(S(=O)(=O)n2c(Cc3ccc(C(=O)O)cc3)cc3cc(Cl)ccc32)cc1
785

State the recorded EC50 for this entry: CC(C)(C)c1cccc(S(=O)(=O)n2c(Cc3ccc(C(=O)O)c(O)c3)cc3cc(C(F)(F)F)ccc32)c1
417

State the recorded EC50 for this entry: CC(C)(C)c1cccc(S(=O)(=O)n2c(Cc3ccc(-c4nn[nH]n4)cc3)cc3cc(C(F)(F)F)ccc32)c1
162

State the recorded EC50 for this entry: O=C(O)c1ccc(Cc2cc3cc(Cl)ccc3n2S(=O)(=O)c2ccc(OC(F)(F)F)cc2)cc1
1300

State the recorded EC50 for this entry: O=C(O)c1ccc(Cc2cc3cc(C(F)(F)F)ccc3n2S(=O)(=O)c2ccc(Cl)c(OC(F)F)c2)cc1
1100

State the recorded EC50 for this entry: O=C(O)c1ccc(Cc2cc3cc(C(F)(F)F)ccc3n2S(=O)(=O)c2ccc(OC(F)(F)F)cc2)cc1
816

State the recorded EC50 for this entry: COC(=O)c1ccc(Cc2cc3ccccc3n2S(=O)(=O)c2cccc(C(C)(C)C)c2)cc1
316

State the recorded EC50 for this entry: CC1(C)COc2ccc(S(=O)(=O)n3c(Cc4ccc(C(=O)O)cc4)cc4cc(Cl)ccc43)cc21
95
